Tested on: A498 renal
Run description: NCI-60 one-dose screen, 48 h (100 = growth as untreated, 0 = no growth, -100 = all killed)
Condition info: 10 µM unless noted
The panel holds about 83,000 compounds, 20% with a hit somewhere; the sample as a whole holds those more often.
Outcome measure: growth (%)
Write the answer as a number in %, unit excluded.

Record `Cc1ccc2c(c1)nc(-c1ccccc1)n2CC(=O)N=Nc1c(O)[nH]c2ccc(Br)cc12` has A498 renal growth equal to -37.2

Response field growth (A498 renal) for item CC1(C)CC[C@]2(C(=O)O)CC[C@]3(C)C(=CCC4[C@@]5(C)C[C@@H](O)[C@@H]6OC(c7ccccc7F)OC[C@@]6(C)C5CC[C@]43C)C2C1 (stereo partly drawn) : 31

The reported A498 renal growth of `CC1=C(C#N)C2=NNCC(c3ccccc3)=NN2C(c2ccccc2)=C1` is 132

# CC12CC[C@@H]3[C@]4(C)COC(c5cn[nH]c5-c5ccc(Cl)cc5)O[C@@H]4CC[C@@]3(C)[C@@H]1CC(C1=CCOC1=O)O2 (stereo partly drawn) with A498 renal: growth is 85.6

Item: `CSc1ccccc1NC(=O)c1ccc2nnn(/C(C#N)=C/c3ccccn3)c2c1` | System: A498 renal | growth: 82.9

====

Some compounds, each annotated with its measured growth.
System: CCRF-CEM leukemia
Run description: NCI-60 one-dose screen, 48 h (100 = growth as untreated, 0 = no growth, -100 = all killed)
Condition info: 10 µM unless noted
Compounds without any hit were thinned out: in the full panel of roughly 83,000, 20% have a hit.
Field: numeric (%). Do not append units.

Compound	Assayed target	growth, %
COc1ccc(-c2nc(SC(C)C)nc(NCCc3c[nH]c4ccccc34)c2C#N)cc1	CCRF-CEM leukemia	18.5
C[C@H]1CN(C(=O)c2ccc3c(NNC(=O)c4ccncn4)nc4cc(F)c(F)cc4n23)CCN1	CCRF-CEM leukemia	10.9
CCOC(=O)c1ccc(Nc2nc(NN)nc(-c3ccc(F)cc3)c2C#N)cc1	CCRF-CEM leukemia	91.9
COc1cccc(COc2ccc(NC(=O)Nc3ccc(Cl)c(C(F)(F)F)c3)cc2)c1	CCRF-CEM leukemia	34.1
O=C(Cn1c(/C=C/c2cccc([N+](=O)[O-])c2)nc2ccccc2c1=O)Nc1ccccc1	CCRF-CEM leukemia	91.5

Record summary for `Cc1ncsc1-c1ccc(CNC(=O)[C@@H]2C[C@@H](O)CN2C(=O)[C@@H](NC(=O)C2(F)CC2)C(C)(C)C)c(OCCOCCOCCOCCOc2nc(Nc3cc(S(C)(=O)=O)ccc3N[C@@H](c3cccc4c3OC(F)(F)O4)c3ncccc3Cl)nc(N3CCNCC3)n2)c1` : reported growth = -9.39

Value of measured growth for the entry `C#CCOc1ccc(/C=N/Nc2nc(-c3ccc(Cl)cc3)cs2)cc1OC` : 36.2

Recorded result, `Nc1nnc(-c2c[nH]c3ncc(Br)cc23)c(-c2c[nH]c3ccc(F)cc23)n1` , growth: 42.7

Form: compound = C#CCOc1cc(N(CC)CC)ccc1C(C(=O)NC(C)(C)C)N(C(=O)C1CCc2cc(F)ccc2O1)c1ccc(Br)cc1 (stereo unspecified) ; growth = 63.6

Entry CC1[C@H]2[C@H](C[C@H]3[C@@H]4CC=C5c6sc(Nc7ccccc7F)nc6CC[C@]5(C)[C@H]4CC[C@@]32C)O[C@]12CC[C@@H](C)CO2 (stereo partly specified) ; growth = -21.5

`CSc1ccccc1NC(=O)c1ccc2nnn(/C(C#N)=C/c3ccccn3)c2c1` has a reported growth of -27.5

response.value for `O=C(NNc1nc2cc(F)ccc2n2c(C(=O)N3CCN(C4CC4)CC3)ccc12)c1ncccn1` (field: growth) = 13.4

Recorded result, `CC(=O)Oc1ccccc1C(=O)[Se]C(=NC1CCCCC1)NC1CCCCC1` , growth: 4.94

Please fill in: growth reported for `COc1ccc(NC(=O)Cn2c(/C=C/c3cccc([N+](=O)[O-])c3)nc3ccccc3c2=O)cc1` = 92.3

Recorded result, CC(=O)OCC1OC(OC2C(COC(C)=O)OC(n3cc(COc4ccc5ccc(=O)oc5c4)nn3)C(OC(C)=O)C2OC(C)=O)C(OC(C)=O)C(OC(C)=O)C1OC(C)=O (stereo unspecified) , growth: 100

Quick note, growth for `Cc1ccc(C(=O)CSc2nc3ccc(F)cc3c(=O)n2-c2ccc(Cl)cc2)cc1` landed at 75.8
